target.under.test: T1, EsCas13d, nuclease-dead (Eubacterium siraeum, UniProt B0MS50, R295A;H300A;R849A;H854A)
T1 sequence: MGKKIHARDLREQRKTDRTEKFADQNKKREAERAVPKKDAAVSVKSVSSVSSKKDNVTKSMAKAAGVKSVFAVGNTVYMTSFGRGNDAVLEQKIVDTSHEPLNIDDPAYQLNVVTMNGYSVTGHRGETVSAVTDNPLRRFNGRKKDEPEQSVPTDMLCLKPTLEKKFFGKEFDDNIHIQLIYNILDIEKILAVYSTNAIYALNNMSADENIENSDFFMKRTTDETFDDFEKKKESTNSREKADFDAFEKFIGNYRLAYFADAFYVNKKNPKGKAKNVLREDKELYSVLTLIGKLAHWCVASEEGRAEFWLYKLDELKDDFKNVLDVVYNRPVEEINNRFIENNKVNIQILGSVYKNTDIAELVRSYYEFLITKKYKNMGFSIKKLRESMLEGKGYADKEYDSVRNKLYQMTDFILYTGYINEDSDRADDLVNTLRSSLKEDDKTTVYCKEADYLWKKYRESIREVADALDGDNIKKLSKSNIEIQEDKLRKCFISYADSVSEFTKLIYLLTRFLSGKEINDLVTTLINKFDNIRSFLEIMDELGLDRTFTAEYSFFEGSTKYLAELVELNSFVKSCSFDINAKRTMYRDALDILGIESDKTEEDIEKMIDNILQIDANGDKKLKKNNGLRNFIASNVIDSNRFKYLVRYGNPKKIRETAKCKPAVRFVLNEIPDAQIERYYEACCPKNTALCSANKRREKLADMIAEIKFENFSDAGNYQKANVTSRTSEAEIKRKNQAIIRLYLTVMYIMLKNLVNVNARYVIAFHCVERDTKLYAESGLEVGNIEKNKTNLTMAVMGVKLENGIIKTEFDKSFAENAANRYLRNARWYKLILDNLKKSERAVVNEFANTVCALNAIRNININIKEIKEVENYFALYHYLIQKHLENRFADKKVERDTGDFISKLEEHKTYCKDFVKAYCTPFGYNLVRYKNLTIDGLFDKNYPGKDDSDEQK
procedure.details: crRNA (strand 1, pre-loaded); Mg2+; 40 mM Tris-HCl pH 7.5, 150 mM NaCl, 6 mM MgCl2, 1 mM DTT, 0.1% Tween-20, 0.2 mg/ml BSA; 25 C; 10 min per concentration, then washed
protocol.conditions: tags: His6-TwinStrep-SUMO cleaved; N-terminal SNAP kept (SNAP-Surface 488); label: 3' end held by stalled T7 RNA polymerase
assay.endpoint: pKd
Worth noting: pKd values are minus log10 of concentrations stated in mol/L.

# pKd lookup, item target 2 MT 5'PFS CAG 3'PFS CAG (mixed) RNA 1: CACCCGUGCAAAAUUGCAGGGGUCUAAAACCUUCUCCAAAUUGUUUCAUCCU RNA 2: GGGAAUGGAUCCACAUCUACGAAUUCCAGAGGAUGAAACAAUUUGGAGAAGCAGAGAUCGGAAGAGCACACGU 8.14

# pKd lookup, item target 1 MT 5'PFS GCA 3'PFS CGA (mixed) RNA 1: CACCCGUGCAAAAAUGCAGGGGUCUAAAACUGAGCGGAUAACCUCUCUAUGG RNA 2: GGGAAUGGAUCCACAUCUACGAAUUCGCACCAUAGAGAGGUUAUCCGCUCACGAAGAUCGGAAGAGCACACGU 7.39

# pKd lookup, item target 1 C2U,G12C (mixed) RNA 1: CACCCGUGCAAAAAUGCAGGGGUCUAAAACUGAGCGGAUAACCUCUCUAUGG RNA 2: GGGAAUGGAUCCACAUCUACGAAUUCGUACCAUAGAGAGCUUAUCCGCUUACCGAGAUCGGAAGAGCACACGU 8.15
